# EXPERIMENTAL_TARGET: Human HDAC9 (Homo sapiens)
# Construct: amino acids 604-1066 with C-terminal His tag; His (C); host or cells: baculovirus expression system
# METHOD_SUMMARY: HDAC9 biochemical assay, class IIa-specific substrate
# CONDITION: read-out: HDAC Isoform IC50 (nM) 9
ENDPOINT_NAME: IC50

Cc1cncnc1N(Cc1ccc(-c2noc(C(F)(F)F)n2)s1)c1cnccn1 ... ≤ 10000 nM

// query # lookup: Human HDAC9 (Homo sapiens) IC50, key = `Cc1cc(C)nc(N(Cc2ccc(-c3noc(C(F)(F)F)n3)s2)c2cnccn2)n1`
// result > 10000 nM

// query # lookup: Human HDAC9 (Homo sapiens) IC50, key = `O=C(c1ccc(N(Cc2ccc(-c3noc(C(F)(F)F)n3)s2)c2cnccn2)nn1)N1C[C@@H]2C[C@H]1CO2`
// result ≤ 10000 nM

// query # lookup: Human HDAC9 (Homo sapiens) IC50, key = `Cc1cc(N(Cc2ccc(-c3noc(C(F)(F)F)n3)s2)c2cnccn2)ncn1`
// result ≤ 10000 nM

###

# EXPERIMENTAL_TARGET: Human HDAC4 (Homo sapiens)
# Construct: amino acids 627-1085 with N-terminal GST tag; GST (N); host or cells: baculovirus expression system
# Sequence (P56524 627-1084 limits assumed): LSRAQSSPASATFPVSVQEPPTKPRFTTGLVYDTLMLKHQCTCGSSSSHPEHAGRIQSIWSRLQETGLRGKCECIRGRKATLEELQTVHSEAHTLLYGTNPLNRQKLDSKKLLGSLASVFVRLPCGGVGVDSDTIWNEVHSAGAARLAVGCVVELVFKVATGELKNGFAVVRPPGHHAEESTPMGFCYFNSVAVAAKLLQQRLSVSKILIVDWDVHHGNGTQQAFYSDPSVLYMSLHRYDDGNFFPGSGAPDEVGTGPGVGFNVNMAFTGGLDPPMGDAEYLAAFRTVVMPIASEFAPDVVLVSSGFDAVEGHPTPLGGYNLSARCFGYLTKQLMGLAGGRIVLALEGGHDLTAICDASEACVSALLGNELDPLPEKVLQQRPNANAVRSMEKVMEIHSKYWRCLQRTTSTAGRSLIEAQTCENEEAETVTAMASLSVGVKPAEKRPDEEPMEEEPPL
# METHOD_SUMMARY: HDAC4 biochemical assay, class IIa-specific substrate
# CONDITION: read-out: HDAC Isoform IC50 (nM) 4
# Procedure: Activity against all zinc-dependent HDACs 1 to 11 was assessed by using an acetylated AMC-labeled peptide substrate. The substrate RHKK(Ac)AMC was used for HDAC1, HDAC2, HDAC3, HDAC6 and HDAC10; the substrate used for HDAC8 was RHK(Ac)K(Ac)AMC. Activity against the class IIa HDACs (HDAC4, 5, 7, 9) and HDAC11 was determined using a class IIa-specific substrate, BOC-Lys(trifluoroacetyl)-AMC (“Trifluoroacetyl Lysine”; see Lahm et al, 2007, PNAS, 104, 17335-17340). […]
ENDPOINT_NAME: IC50

Example compounds with recorded IC50:
FC(F)(F)c1cnc(N(Cc2ccc(-c3noc(C(F)(F)F)n3)s2)c2cnccn2)cn1 [Example BK] ... ≤ 10000 nM
CC1(c2cnnc(N(Cc3ccc(-c4noc(C(F)(F)F)n4)s3)c3cnccn3)c2)COC1 [Example GT] ... ≤ 10000 nM
O=C(c1cnnc(N(Cc2ccc(-c3noc(C(F)(F)F)n3)s2)c2cnccn2)c1)N1C[C@H]2C[C@@H]1CO2 [Example FW] ... ≤ 10000 nM
CC(c1ccc(-c2noc(C(F)(F)F)n2)s1)N(c1cnccn1)c1cnccn1 (centres unmarked) [Example BB] ... ≤ 500 nM

Consider now this further compound.
// query Identify the reported IC50 for the following entry. O=C(c1cnnc(N(Cc2ccc(-c3noc(C(F)(F)F)n3)s2)c2cnccn2)c1)N1CCS(=O)(=O)CC1 [Example ED]
// result ≤ 10000 nM

###

# EXPERIMENTAL_TARGET: Recombinant human HDAC6 (Homo sapiens, UniProt Q9UBN7)
# Construct: full length, MW=159 kDa; GST (N); host or cells: Sf9 insect cells (baculovirus)
# Sequence (Q9UBN7 whole entry): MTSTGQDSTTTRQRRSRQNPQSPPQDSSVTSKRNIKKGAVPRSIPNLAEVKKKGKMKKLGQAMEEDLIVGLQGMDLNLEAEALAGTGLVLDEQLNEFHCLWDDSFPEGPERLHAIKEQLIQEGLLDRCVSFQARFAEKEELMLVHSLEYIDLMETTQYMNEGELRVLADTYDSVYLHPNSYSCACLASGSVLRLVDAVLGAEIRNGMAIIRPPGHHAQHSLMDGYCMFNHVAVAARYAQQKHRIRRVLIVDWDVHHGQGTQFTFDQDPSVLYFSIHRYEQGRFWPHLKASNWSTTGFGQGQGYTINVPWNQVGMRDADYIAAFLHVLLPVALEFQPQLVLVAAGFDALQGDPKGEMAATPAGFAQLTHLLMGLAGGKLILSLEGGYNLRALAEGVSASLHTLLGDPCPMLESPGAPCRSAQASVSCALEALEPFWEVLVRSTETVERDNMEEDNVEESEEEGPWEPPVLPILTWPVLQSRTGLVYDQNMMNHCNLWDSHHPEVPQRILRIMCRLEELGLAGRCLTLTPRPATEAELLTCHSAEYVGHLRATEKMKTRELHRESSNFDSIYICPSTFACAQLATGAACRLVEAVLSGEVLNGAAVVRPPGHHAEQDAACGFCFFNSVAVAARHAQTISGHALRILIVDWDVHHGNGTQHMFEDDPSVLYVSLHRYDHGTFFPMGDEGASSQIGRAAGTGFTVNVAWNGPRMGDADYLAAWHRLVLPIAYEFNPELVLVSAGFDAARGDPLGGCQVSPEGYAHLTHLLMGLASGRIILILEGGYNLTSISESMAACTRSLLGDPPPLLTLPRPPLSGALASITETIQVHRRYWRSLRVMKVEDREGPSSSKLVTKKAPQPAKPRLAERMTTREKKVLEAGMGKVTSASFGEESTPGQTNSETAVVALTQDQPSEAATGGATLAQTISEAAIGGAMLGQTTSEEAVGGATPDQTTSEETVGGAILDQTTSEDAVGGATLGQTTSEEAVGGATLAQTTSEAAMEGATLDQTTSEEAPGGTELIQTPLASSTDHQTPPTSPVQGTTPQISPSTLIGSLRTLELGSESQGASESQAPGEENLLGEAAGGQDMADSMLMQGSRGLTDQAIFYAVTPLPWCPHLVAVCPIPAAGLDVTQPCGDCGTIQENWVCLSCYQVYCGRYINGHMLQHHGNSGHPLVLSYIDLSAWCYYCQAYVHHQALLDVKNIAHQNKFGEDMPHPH
# METHOD_SUMMARY: HDAC6 biochemical assay, AMC-labeled peptide substrate
# CONDITION: HDAC6; read-out: HDAC Isoform IC50 (nM) 6
ENDPOINT_NAME: IC50

Example compounds with recorded IC50:
FC(F)(F)c1nc(-c2ccc(CN(c3cnccn3)c3cnc(N4CCOCC4)cn3)s2)no1 ... ≤ 10000 nM
COc1ccnc(N(Cc2ccc(-c3noc(C(F)(F)F)n3)s2)c2cnccn2)n1 ... ≤ 10000 nM
CN(C)C(=O)c1ccc(N(Cc2ccc(-c3noc(C(F)(F)F)n3)s2)c2cnccn2)nc1 ... ≤ 1000 nM

Consider now this further compound.
// query Identify the reported IC50 for the following entry. `COc1cncc(N(Cc2ccc(-c3noc(C(F)(F)F)n3)s2)c2cncc(OC)n2)n1`
// result ≤ 10000 nM

###

# EXPERIMENTAL_TARGET: Human HDAC9 (Homo sapiens, UniProt Q9UKV0)
# Construct: amino acids 604-1066 with C-terminal His tag; His (C); host or cells: baculovirus expression system
# Sequence (Q9UKV0 604-1066 isoform Q9UKV0-5): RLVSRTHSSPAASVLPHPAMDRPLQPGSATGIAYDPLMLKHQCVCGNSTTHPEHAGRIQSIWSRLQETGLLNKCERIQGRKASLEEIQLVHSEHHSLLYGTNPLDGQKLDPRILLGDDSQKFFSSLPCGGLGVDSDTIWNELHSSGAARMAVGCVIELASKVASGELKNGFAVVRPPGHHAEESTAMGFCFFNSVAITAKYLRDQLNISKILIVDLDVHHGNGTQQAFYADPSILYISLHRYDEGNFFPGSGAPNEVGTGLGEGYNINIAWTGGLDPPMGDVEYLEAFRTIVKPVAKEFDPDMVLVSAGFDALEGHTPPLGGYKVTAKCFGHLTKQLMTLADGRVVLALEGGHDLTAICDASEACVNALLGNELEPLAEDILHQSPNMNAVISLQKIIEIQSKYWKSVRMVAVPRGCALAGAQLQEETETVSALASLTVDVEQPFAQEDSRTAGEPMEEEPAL
# METHOD_SUMMARY: HDAC9 biochemical assay, class IIa-specific substrate
# CONDITION: read-out: HDAC Isoform IC50 (nM) 9
ENDPOINT_NAME: IC50

Example compounds with recorded IC50:
FC(F)(F)c1cc(N(Cc2ccc(-c3noc(C(F)(F)F)n3)s2)c2cnccn2)ncn1 [Example CJ] ... ≤ 10000 nM
Fc1cnc(N(Cc2ccc(-c3noc(C(F)(F)F)n3)s2)c2cnccn2)nc1 [Example AX] ... ≤ 10000 nM

Consider now this further compound.
// query Identify the reported IC50 for the following entry. CC1(c2cnnc(N(Cc3ccc(-c4noc(C(F)(F)F)n4)s3)c3cnccn3)c2)COC1 [Example GT]
// result ≤ 10000 nM

###

# EXPERIMENTAL_TARGET: Human HDAC7 (Homo sapiens)
# Construct: (a.a. 518-end) with N-terminal GST tag; GST (N); host or cells: baculovirus expression system
# Sequence (Q8WUI4 518-952 limits assumed): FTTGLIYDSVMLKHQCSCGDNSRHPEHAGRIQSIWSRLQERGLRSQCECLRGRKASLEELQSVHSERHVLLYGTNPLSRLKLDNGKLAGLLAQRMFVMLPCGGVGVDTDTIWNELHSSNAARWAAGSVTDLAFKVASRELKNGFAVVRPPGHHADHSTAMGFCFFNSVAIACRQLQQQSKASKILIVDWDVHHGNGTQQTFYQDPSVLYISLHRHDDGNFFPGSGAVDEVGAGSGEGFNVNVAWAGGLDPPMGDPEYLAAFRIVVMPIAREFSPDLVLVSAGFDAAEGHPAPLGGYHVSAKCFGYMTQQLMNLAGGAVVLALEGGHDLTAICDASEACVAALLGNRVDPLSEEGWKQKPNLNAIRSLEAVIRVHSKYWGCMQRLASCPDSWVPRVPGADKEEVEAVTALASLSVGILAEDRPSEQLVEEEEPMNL
# METHOD_SUMMARY: HDAC7 biochemical assay, class IIa-specific substrate
# CONDITION: read-out: HDAC Isoform IC50 (nM) 7
ENDPOINT_NAME: IC50

CN(C(=O)c1cnnc(N(Cc2ccc(-c3noc(C(F)(F)F)n3)s2)c2cnccn2)c1)S(C)(=O)=O [Example GE] ... ≤ 1000 nM

// query # lookup: Human HDAC7 (Homo sapiens) IC50, key = NC(=O)c1nccnc1N(Cc1ccc(-c2noc(C(F)(F)F)n2)s1)c1cnccn1 [Example GO]
// result ≤ 10000 nM

// query # lookup: Human HDAC7 (Homo sapiens) IC50, key = COc1cnc(N(Cc2ccc(-c3noc(C(F)(F)F)n3)s2)c2cc(C(F)(F)F)cnn2)cn1 [Example EP]
// result ≤ 10000 nM

// query # lookup: Human HDAC7 (Homo sapiens) IC50, key = FC(F)(F)c1nc(-c2ccc(CN(c3cccnc3)c3cnccn3)s2)no1 [Example AO]
// result ≤ 500 nM

// query # lookup: Human HDAC7 (Homo sapiens) IC50, key = FC(F)(F)c1nc(-c2ccc(CN(c3cnccn3)c3cc(-c4ccccn4)cnn3)s2)no1 [Example GM]
// result ≤ 500 nM

// query # lookup: Human HDAC7 (Homo sapiens) IC50, key = O=C(c1cnnc(N(Cc2ccc(-c3noc(C(F)(F)F)n3)s2)c2cnccn2)c1)N1CC2(COC2)C1 [Example FZ]
// result ≤ 1000 nM

// query # lookup: Human HDAC7 (Homo sapiens) IC50, key = FC(F)(F)c1nc(-c2ccc(CN(c3cnccn3)c3nccc4ncccc34)s2)no1 [Example AJ]
// result ≤ 10000 nM

// query # lookup: Human HDAC7 (Homo sapiens) IC50, key = COc1ccc2ncnc(N(Cc3ccc(-c4noc(C(F)(F)F)n4)s3)c3cnccn3)c2c1 [Example CN]
// result ≤ 10000 nM

// query # lookup: Human HDAC7 (Homo sapiens) IC50, key = Fc1cc(-c2noc(C(F)(F)F)n2)sc1CN(c1cnccn1)c1cnccn1 [Example EY]
// result ≤ 1000 nM

// query # lookup: Human HDAC7 (Homo sapiens) IC50, key = FC(F)(F)c1ccc(N(Cc2ccc(-c3noc(C(F)(F)F)n3)s2)c2cnccn2)nn1 [Example DH]
// result ≤ 10000 nM

// query # lookup: Human HDAC7 (Homo sapiens) IC50, key = COC1CN(Cc2ccnc(N(Cc3ccc(-c4noc(C(F)(F)F)n4)s3)c3cnccn3)c2)C1 [Example GH]
// result ≤ 10000 nM

###

Listing of entries alongside the reported IC50.
# EXPERIMENTAL_TARGET: Recombinant human HDAC6 (Homo sapiens, UniProt Q9UBN7)
# Construct: full length, MW=159 kDa; GST (N); host or cells: Sf9 insect cells (baculovirus)
# METHOD_SUMMARY: HDAC6 biochemical assay, AMC-labeled peptide substrate
# CONDITION: HDAC6; read-out: HDAC Isoform IC50 (nM) 6

Example compounds with recorded IC50:
FC(F)(F)c1nc(-c2ccc(CN(c3cnccn3)c3nccnn3)s2)no1 ... ≤ 1000 nM
FC(F)(F)c1cnnc(N(Cc2ccc(-c3noc(C(F)(F)F)n3)s2)c2ncccn2)c1 ... ≤ 10000 nM
O=C(c1cnnc(N(Cc2ccc(-c3noc(C(F)(F)F)n3)s2)c2cnccn2)c1)N1CC(F)(F)C1 ... ≤ 500 nM
O=C(c1cnnc(N(Cc2ccc(-c3noc(C(F)(F)F)n3)s2)c2cnccn2)c1)N1CCCC1 ... ≤ 500 nM
COc1ncncc1N(Cc1ccc(-c2noc(C(F)(F)F)n2)s1)c1cnccn1 ... ≤ 10000 nM

// query # lookup: Recombinant human HDAC6 (Homo sapiens, UniProt Q9UBN7) IC50, key = `COc1ncc(N(Cc2ccc(-c3noc(C(F)(F)F)n3)s2)c2cnccn2)nc1OC`
// result ≤ 10000 nM

// query # lookup: Recombinant human HDAC6 (Homo sapiens, UniProt Q9UBN7) IC50, key = `O=C(O)c1ccc(N(Cc2ccc(-c3noc(C(F)(F)F)n3)s2)c2cnccn2)nn1`
// result ≤ 1000 nM

// query # lookup: Recombinant human HDAC6 (Homo sapiens, UniProt Q9UBN7) IC50, key = `Fc1ccnc(N(Cc2ccc(-c3noc(C(F)(F)F)n3)s2)c2cnccn2)c1`
// result ≤ 500 nM

// query # lookup: Recombinant human HDAC6 (Homo sapiens, UniProt Q9UBN7) IC50, key = `FC(F)(F)c1nc(-c2ccc(CN(c3cnccn3)c3ccc(-c4ccccc4)nn3)s2)no1`
// result ≤ 500 nM

// query # lookup: Recombinant human HDAC6 (Homo sapiens, UniProt Q9UBN7) IC50, key = `FC(F)(F)c1cnnc(N(Cc2ccc(-c3noc(C(F)(F)F)n3)s2)c2ccc(N3CCCC3)nn2)c1`
// result ≤ 10000 nM
